Just for reference, ChEMBL document CHEMBL1132437 is where these values come from.

Measured MIC values are reported for all entries that follow.
- System: Burkholderia cepacia
- protocol: In vitro antibacterial activity against gram negative Pseudomonas cepacia 2961
- Format: functional
- conditionSet: Burkholderia cepacia; read-out: MIC

compound: Cc1c(N2CC[C@@H]3[C@H](N)[C@@H]3C2)c(F)cn2c(=O)c(C(=O)O)cc(C3CC3)c12
endpointUnit: µg/mL
MIC: 3.1

compound: Cc1c(N2CC[C@H](C)[C@H](N)C2)c(F)cn2c(=O)c(C(=O)O)cc(C3CC3)c12 (stereo in doubt; 3ss)
endpointUnit: µg/mL
MIC: 1.56

compound: CN[C@H]1CN(c2c(F)cn3c(=O)c(C(=O)O)cc(C4CC4)c3c2C)C[C@@H]1C
endpointUnit: µg/mL
MIC: 0.78

compound: Cc1c(N2C[C@H](C3CC3)[C@@H](N)C2)c(F)cn2c(=O)c(C(=O)O)cc(C3CC3)c12
endpointUnit: µg/mL
MIC: 1.56

compound: CN[C@H]1CCN(c2c(F)cn3c(=O)c(C(=O)O)cc(C4CC4)c3c2C)C1
endpointUnit: µg/mL
MIC: 1.56

compound: Cc1c(N2C[C@@H](C)[C@H](N)C2)c(F)cn2c(=O)c(C(=O)O)cc(C3CC3)c12
endpointUnit: µg/mL
MIC: 0.78

compound: Cc1c(N2CC[C@H](C)[C@@H](N)C2)c(F)cn2c(=O)c(C(=O)O)cc(C3CC3)c12
endpointUnit: µg/mL
MIC: 3.1

compound: Cc1c(N2CCC(O)C2)c(F)cn2c(=O)c(C(=O)O)cc(C3CC3)c12 (stereo not drawn)
endpointUnit: µg/mL
MIC: 0.1
